Ref: PubChem BioAssay AID1159580

Listing of entries alongside the reported normalized growth.
Assay: chemical genetic growth profiling, strain panel (AID 1159580);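 also: tested at 20 µM; growth read once vehicle control cultures reached saturation at 30 °C; 1 = growth at the plate median or of vehicle wells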
Details: S. cerevisiae deletion strains, growth OD, locus YLR384C, strain iki3, stronger effect = lower value
Screen size: about 5,500 compounds; about 2,000 (36%) were called active. Inconclusive results (about 18%) are left out. This is one part of the list.
OBSERVABLE: normalized growth

CC(C)[C@@H]1CC[C@@H](C)C[C@H]1O: 0.999
CC1OC1P(=O)(O)O (stereo not drawn): 0.995
CC(=O)OCC(OC(C)=O)C(OC(C)=O)C(OC(C)=O)C(OC(C)=O)C(COC(C)=O)OC(C)=O (stereo not drawn): 1
C=CCCCCCCCCCCCC(O)CC(O)COC(C)=O (stereo not drawn) (tested in a mixture with another compound): 0.97
O=c1cc[nH]c(=S)[nH]1: 1.01
COc1c(OC)c2occc2c2oc(=O)ccc12: 0.991
NC(N)=NS(=O)(=O)c1ccc(N)cc1: 0.995
NS(=O)(=O)c1cc2c(cc1Cl)NC(C(Cl)Cl)NS2(=O)=O (stereo not drawn): 0.973
COc1c2ccoc2c(OC)c2oc(=O)ccc12: 0.991
O=c1cc(-c2ccccc2O)oc2cc(O)ccc12: 0.959
CC(=O)OCC[C@H](C)CCC=C(C)C: 0.971
C#CCCCCCCCCCCCC(O)CC(O)COC(C)=O (stereo not drawn): 0.967
C#CCCCCCCCCCCCC(=O)CC(O)COC(C)=O (stereo not drawn): 0.996
C#CCCCCCCCCCCCC(O)CC(O)CO (stereo not drawn): 0.98
COc1cc2c(cc1OC)C1Cc3ccc(OC)c(OC)c3CN1CC2 (stereo not drawn): 0.988
C=C1CCC2C(CC2(C)C)C(=C)CC/C1=N\O (stereo not drawn): 0.992
CC(C)(Oc1ccc(C2CC2(Cl)Cl)cc1)C(=O)O (stereo not drawn): 1
C=C1CCC(C2CC(=O)OC2=O)C(=O)CCC2C1CC2(C)C (stereo not drawn): 1.01

* * *

Test: chemical genetic growth profiling, strain panel (AID 1159580);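 also: tested at 20 µM; growth read once vehicle control cultures reached saturation at 30 °C; 1 = growth at the plate median or of vehicle wells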
Conditions: S. cerevisiae deletion strains, growth OD, locus YLR258W, strain gsy2, stronger effect = lower value
Hit rate of the full screen: of about 5,500 compounds, about 2,000 (36%) were called active. Roughly 18% stayed inconclusive and do not appear here. Some of the results follow.
Could you please mark Condition met for values of normalized growth below 0.9 and Condition not met for values at or above it?

Cc1ccc(C)c(OCCCC(C)(C)C(=O)O)c1: Condition not met
CO[C@@]1(NC(=O)CSCC#N)C(=O)N2C(C(=O)O)=C(CSc3nnnn3C)CSC21 (stereo partly specified): Condition not met
C=CC(N)CCC(=O)O (stereo unspecified): Condition not met
C[C@H]1COC2=C1C(=O)C(=O)c1c2ccc2c1CCCC2(C)C: Condition met
CCCC(=O)O[C@]1(C(=O)CO)CCC2[C@@H]3CCC4=CC(=O)CC[C@]4(C)C3[C@@H](O)C[C@@]21C (stereo partly specified): Condition not met

* * *

Test: chemical genetic growth profiling, strain panel (AID 1159580);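 also: tested at 20 µM; growth read once vehicle control cultures reached saturation at 30 °C; 1 = growth at the plate median or of vehicle wells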
Settings: S. cerevisiae deletion strains, growth OD, locus YPR135W, strain CTF4
In all, about 5,500 compounds went through this assay and about 2,000 (36%) were called active. About 18% were inconclusive and are not listed. No stated cut-off is given here; in the data, active means normalized growth mostly below about 0.91 (no sharp cut-off); inconclusive means no clear call, values can overlap the other calls; inactive means mostly above about 0.92. Some of the results follow.
Classes used: 1 = active, 0 = inactive

CC(C)(C)S(=O)(=O)/C(C#N)=C/N1CCCCC1: 0
Nc1ccc(C(=O)/C(=C\c2cccc([N+](=O)[O-])c2)C(=O)c2ccc(-c3ccccc3)cc2)cc1: 0
CC12NC(=O)NC1(C)NC(=O)N2 (stereo unspecified): 0
Cc1ccc(-n2cccc2)c(NC(=S)Nc2ccc(Br)cc2OC(F)(F)F)c1: 0
O=[N+]([O-])c1ccc(N2CCCN(C(=S)Nc3ccc(Cl)cc3Cl)CC2)nc1: 1
COC(=O)C1=C(C)NC(C)=C(C(=O)OC)C1c1ccc(-c2ccsc2C(=O)OC)o1: 0
Nc1ccc(N=Nc2ccc(S(N)(=O)=O)cc2)c2ccccc12: 0
N#Cc1c(F)cccc1Oc1ccc(F)cc1: 0
COCCCNC(=S)Nc1ccc(C)cc1C: 0
N#Cc1ncc(C(F)(F)F)cc1Oc1ccc(Cl)cc1: 0
CCOC(=O)Nc1ccsc1C(=O)OC: 0
